B1: Histone H1t, residues 44 to 112; numbered along this chain, P22492 (parent)
chain: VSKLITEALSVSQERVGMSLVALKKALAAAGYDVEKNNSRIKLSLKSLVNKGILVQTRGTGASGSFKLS

# Variants of: B1
# METHOD SUMMARY: abundance fitness (aPCA) (normalised: wild type 0, dead -1); higher = more abundant; growth selection in yeast, the domain comes from the species named
# EXPERIMENTAL PARAMETERS: Homo sapiens
Kindly return yes if reported abundance fitness is no lower than -0.09; return no if it is lower.

Request: In plain terms: is recorded abundance fitness at least -0.09 for VSKLITEALSVSQERVGMSLVALKKALAAAGYDVEKNNSRIKLSNKSLVNKGILVQTRGTGASGSFKLS [L45N] ?
Response: no

Request: VSKLITEALSVSQERVGMSLVALKKALAAAGYDVEKNNSRIKLSLKSLVNKGPLVQTRGTGASGSFKLS [I53P] , same question.
Response: no

Request: Then what about the variant VSKLITEALSVSQERVGMSLVALKKALAAAGYDVEKNNSRIKLSLKSLVNKGILVQTRGTGASGSWKLS [F66W] ?
Response: yes

Request: # iterate: VSKLITEALSVSQERVGMSLVALKKALAAAGYDWEKNNSRIKLSLKSLVNKGILVQTRGTGASGSFKLS [V34W]
Response: no

Request: And VSKLITEALSVSQERVGMSLVALKKALAATGYDVEKNNSRIKLSLKSLVNKGILVQTRGTGASGSFKLS [A30T] ?
Response: yes

Continuing:
Request: Hi, just wondering whether VSKLITEALSVSQERVGMSLVALKKALAAAGYDVEKNNSRIKLSLKSLVNKGILVQTRGTGASGSFKLH [S69H] shows abundance fitness of -0.09 or higher.
Response: no
